# target desc: Reck-CK-Fc
# assay info: Isothermal titration calorimetry (ITC) of synthetic Wnt linker peptides into recombinant Reck-CK-Fc
# Assay type: binding
# experimental conditions: 25° C., Tris-NaCl buffer pH8; read-out: affinity of binding to Reck (ITC)
Ends that are not written are not given here.
measured quantity: Kd
Hi, when you answer, please include the unit after the number. Thanks!

Can you look up the measured Kd of VEVVRASRLRQPTFLRIKQLRSYQKPMET [pWnt7b] for me?
1.2 µM
